Tested on: SK-MEL-28 melanoma
measurement_protocol: NCI tumour cell line growth inhibition, 48 h
Entries and their TGI values follow.

>  <molecule>
CCCCCCCC/C=C/CCCCCCCC1=NC(C)(C)CN1C(C)(C)CO

>  <target_of_assay>
SK-MEL-28 melanoma

>  <inequality_operator>
=

>  <TGI / µM>
3.18

$$$$
>  <molecule>
O=C1c2cc3c(cc2-c2c1c1cc(F)c(F)cc1c(=O)n2CCCn1ccnc1)OCO3

>  <target_of_assay>
SK-MEL-28 melanoma

>  <inequality_operator>
>

>  <TGI / µM>
100

$$$$
>  <molecule>
Cn1c(COC(=O)NCCn2ccnc2)nc2c(N3CCOCC3)nc(-c3ccccc3)nc21

>  <target_of_assay>
SK-MEL-28 melanoma

>  <inequality_operator>
=

>  <TGI / µM>
2.62

$$$$
>  <molecule>
CC(C)CCCC(C)[C@H]1CCC(C2C[C@@H](O)[C@@H]3CC(O)[C@@H](O)C[C@]3(CO)C2=O)[C@]1(C)CCO (stereo partly drawn)

>  <target_of_assay>
SK-MEL-28 melanoma

>  <inequality_operator>
=

>  <TGI / µM>
40.5

$$$$
>  <molecule>
COc1cc(C2CC(c3ccc(Nc4nc(NCCO)nc(NCCO)n4)cc3)=NN2c2cc(Cl)cc(Cl)c2)cc(OC)c1OC (stereo not drawn)

>  <target_of_assay>
SK-MEL-28 melanoma

>  <inequality_operator>
=

>  <TGI / µM>
3.14

$$$$
>  <molecule>
Nc1c(C(=O)c2ccc(Cl)c(Cl)c2)[nH]c(NCc2ccccc2)c1C(=S)Nc1ccccc1

>  <target_of_assay>
SK-MEL-28 melanoma

>  <inequality_operator>
=

>  <TGI / µM>
18.9

$$$$
>  <molecule>
COc1cc2c[n+]3c4c(c2c(OC)c1OC)CCCC4CC3 (stereo not drawn)

>  <target_of_assay>
SK-MEL-28 melanoma

>  <inequality_operator>
>

>  <TGI / µM>
100

$$$$
>  <molecule>
CC(=O)CC1(CBr)Nc2ccc([N+](=O)[O-])cc2NC1=O (stereo not drawn)

>  <target_of_assay>
SK-MEL-28 melanoma

>  <inequality_operator>
>

>  <TGI / µM>
100

$$$$
>  <molecule>
O=C1Nc2ccccc2/C1=C\c1c(Cl)n(-c2ccccc2)c2ccccc12

>  <target_of_assay>
SK-MEL-28 melanoma

>  <inequality_operator>
>

>  <TGI / µM>
100

$$$$
>  <molecule>
CCCCCC[C@H]([C@H](C)O)n1cnc2c(N)ncnc21

>  <target_of_assay>
SK-MEL-28 melanoma

>  <inequality_operator>
>

>  <TGI / µM>
100

$$$$
>  <molecule>
COc1cc2c(cc1OC)C(=O)N(c1ccc(OCCN3CCCC3)cc1)C2

>  <target_of_assay>
SK-MEL-28 melanoma

>  <inequality_operator>
>

>  <TGI / µM>
100

$$$$
>  <molecule>
CCC[CH2][Sn-]([CH2]CCC)([CH2]CCC)[O]C(=O)C(C)C

>  <target_of_assay>
SK-MEL-28 melanoma

>  <inequality_operator>
=

>  <TGI / µM>
0.329

$$$$
>  <molecule>
O=C1NC(=NCCc2ccc(Cl)cc2)S/C1=C\c1ccc2ncccc2c1

>  <target_of_assay>
SK-MEL-28 melanoma

>  <inequality_operator>
>

>  <TGI / µM>
25

$$$$
>  <molecule>
CN1CCCC2[C@@H]3CCC4c5nonc5CC[C@]4(C)C3CC[C@@]21C (stereo partly drawn)

>  <target_of_assay>
SK-MEL-28 melanoma

>  <inequality_operator>
>

>  <TGI / µM>
100

$$$$
>  <molecule>
COc1ccc2[nH]c(C(=O)N3CCN(C(=O)OCc4ccc5c(Cl)cc(Cl)c(O)c5n4)CC3)cc2c1

>  <target_of_assay>
SK-MEL-28 melanoma

>  <inequality_operator>
=

>  <TGI / µM>
2.94

$$$$
>  <molecule>
c1cnc2c(c1)-n1cccc1C1(CCCCC1)NN2

>  <target_of_assay>
SK-MEL-28 melanoma

>  <inequality_operator>
>

>  <TGI / µM>
100

$$$$
>  <molecule>
Cc1ccc(/C(=N/Nc2ccc([N+](=O)[O-])cc2)Sc2cc(Cl)c(C)cc2S(N)(=O)=O)cc1

>  <target_of_assay>
SK-MEL-28 melanoma

>  <inequality_operator>
=

>  <TGI / µM>
8.9

$$$$
>  <molecule>
COC(=O)C1CC(c2ccc(OC)c(OC)c2)OC1=O (mixture of isomers)

>  <target_of_assay>
SK-MEL-28 melanoma

>  <inequality_operator>
>

>  <TGI / µM>
100

$$$$
>  <molecule>
COC1CC(C)(NC(=O)C(F)(F)F)C2OC(c3ccccc3)OCC2O1 (stereo not drawn)

>  <target_of_assay>
SK-MEL-28 melanoma

>  <inequality_operator>
>

>  <TGI / µM>
100

$$$$
>  <molecule>
ClC1=NN=C(c2c[nH]c3ccccc23)CC1NCc1ccccc1 (stereo not drawn)

>  <target_of_assay>
SK-MEL-28 melanoma

>  <inequality_operator>
>

>  <TGI / µM>
100

$$$$
>  <molecule>
CC(C)(C)C[C@H]1N[C@@H](C(=O)NC2CCC(O)CC2)[C@H](c2cccc(Cl)c2F)[C@@]12C(=O)Nc1cc(Cl)ccc12 (stereo partly drawn)

>  <target_of_assay>
SK-MEL-28 melanoma

>  <inequality_operator>
=

>  <TGI / µM>
11.7

$$$$
>  <molecule>
Cn1c(I)c(C#C[Si](C)(C)C)c(=O)n(C(=O)c2ccccc2)c1=O

>  <target_of_assay>
SK-MEL-28 melanoma

>  <inequality_operator>
=

>  <TGI / µM>
3.8

$$$$
>  <molecule>
CC1=NN(C(=O)CC(=O)Nc2cccc(C)c2)C(=O)C1N=Nc1ccc(S(=O)(=O)CCOS(=O)(=O)O)cc1 (stereo not drawn)

>  <target_of_assay>
SK-MEL-28 melanoma

>  <inequality_operator>
=

>  <TGI / µM>
19.7

$$$$
>  <molecule>
CN(C)CCC(=O)Nc1ccc(-n2cc(-c3cccc(NC(=S)Nc4cccc(-c5cn(-c6ccc(NC(=O)CCN(C)C)cc6)nn5)c4)c3)nn2)cc1

>  <target_of_assay>
SK-MEL-28 melanoma

>  <inequality_operator>
=

>  <TGI / µM>
53.4

$$$$
>  <molecule>
CCOc1ccc(NC(=O)/C(CC(=O)c2c[n+](=O)c3ccccc3n2[O-])=N\OCCCc2ccccc2)cc1

>  <target_of_assay>
SK-MEL-28 melanoma

>  <inequality_operator>
>

>  <TGI / µM>
100

$$$$
>  <molecule>
O=C(Nc1ccc(Cl)cc1C(F)(F)F)C(=O)Nn1c(=S)[nH]c2ccccc2c1=O

>  <target_of_assay>
SK-MEL-28 melanoma

>  <inequality_operator>
>

>  <TGI / µM>
100

$$$$
>  <molecule>
CCCCNC(c1ccc(Cl)cc1)C(O)c1ccc(Cl)cc1 (stereo not drawn)

>  <target_of_assay>
SK-MEL-28 melanoma

>  <inequality_operator>
=

>  <TGI / µM>
4.5

$$$$
>  <molecule>
CCC1(c2ccc(N3C(=O)c4cccc5cc([N+](=O)[O-])cc(c45)C3=O)cc2)CCC(=O)NC1=O (stereo not drawn)

>  <target_of_assay>
SK-MEL-28 melanoma

>  <inequality_operator>
=

>  <TGI / µM>
86.8

$$$$
>  <molecule>
N#C/C(=C\c1ccc2[nH]ccc2c1)C(=O)NCCCCNC(=O)/C(C#N)=C/c1ccc2[nH]ccc2c1

>  <target_of_assay>
SK-MEL-28 melanoma

>  <inequality_operator>
>

>  <TGI / µM>
31.6

$$$$
>  <molecule>
CCOc1ccc2nc(NC(=O)C(=O)C(C(=O)c3ccccc3F)C3OC(=O)c4ccccc43)sc2c1 (stereo not drawn)

>  <target_of_assay>
SK-MEL-28 melanoma

>  <inequality_operator>
=

>  <TGI / µM>
46.5

$$$$
>  <molecule>
O=C(Nc1n[nH]c2cc(-c3cc(F)ccc3F)ccc12)C1CC1

>  <target_of_assay>
SK-MEL-28 melanoma

>  <inequality_operator>
>

>  <TGI / µM>
25

$$$$
>  <molecule>
COc1nc(Cl)nc(N[C@H](C)c2c3ccccc3cc3ccccc23)n1

>  <target_of_assay>
SK-MEL-28 melanoma

>  <inequality_operator>
=

>  <TGI / µM>
10.2

$$$$
>  <molecule>
CC1=NN(c2cccc(Cl)c2)C(=O)/C1=C\c1cn(CC(O)CN2CCCCC2)c2ccccc12 (stereo not drawn)

>  <target_of_assay>
SK-MEL-28 melanoma

>  <inequality_operator>
=

>  <TGI / µM>
3.47

$$$$
>  <molecule>
COc1cc2c(/C=C3\C(=O)Nc4ccccc43)c[nH]c2cc1C

>  <target_of_assay>
SK-MEL-28 melanoma

>  <inequality_operator>
=

>  <TGI / µM>
20.3

$$$$
>  <molecule>
CC(=O)Nc1ccc(C2CC(c3ccc([N+](=O)[O-])cc3)=Nc3ccccc3S2)cc1 (stereo not drawn)

>  <target_of_assay>
SK-MEL-28 melanoma

>  <inequality_operator>
=

>  <TGI / µM>
38.4

$$$$
>  <molecule>
O=C1c2ccccc2-c2nc3ccncc3n21

>  <target_of_assay>
SK-MEL-28 melanoma

>  <inequality_operator>
>

>  <TGI / µM>
100

$$$$
>  <molecule>
COc1cc(/C=N/NC(=O)c2cnn3c2NC(c2ccccc2)C3)ccc1OC1CCCC1 (stereo not drawn)

>  <target_of_assay>
SK-MEL-28 melanoma

>  <inequality_operator>
=

>  <TGI / µM>
9.15

$$$$
>  <molecule>
CSC(SC)=C(C(=O)c1ccc(Cl)cc1)n1c(=O)sc2cc(Br)ccc21

>  <target_of_assay>
SK-MEL-28 melanoma

>  <inequality_operator>
>

>  <TGI / µM>
100

$$$$
